Molecular target: human GLP-1 receptor (human, UniProt P43220 24-463)
Assay: cell-based or functional assay
Binary call on hGLPIR cAMP EC50 ratio: TRUE from 1 upward, FALSE beneath that.

# example entries with known answers
YXEGTXTSDXSIXLDEKAQXEFIEYLIEGGPSSGAPPPS (Aib2; αMeF(2F)6; cTA10; αMeL13; K17((2-[2-(2-Amino-ethoxy)-ethoxy]-acetyl)2-(γGlu)-CO-(CH2)18-CO2H); Aib20; C-terminal NH2) [Peptide 155]: FALSE
YXEGTXTSDYSIXLDEKAQXEFIXYLIEGGPSSGAPPPS (Aib2; αMeF(2F)6; αMeL13; K17((2-[2-(2-Amino-ethoxy)-ethoxy]-acetyl)2-CO-(CH2)18-CO2H); Aib20; D-Glu24; C-terminal NH2) [Peptide 215]: FALSE
YXEGTXTSDXSIXLDXKAQXEFIXXLIEGG (Aib2; αMeF(2F)6; 4Pal10; αMeL13; Orn16; K17((2-[2-(2-Amino-ethoxy)-ethoxy]-acetyl)2-(γGlu)-CO-(CH2)16-CO2H); Aib20; D-Glu24; αMeY25; C-terminal NH2) [Peptide 265]: TRUE

Query: Kindly determine if hGLPIR cAMP EC50 ratio recorded for YXEGTXTSDASIXLDXKAQXAFIXXLIEGGPSSGAPPPS (not fully specified; Aib2; αMeF(2F)6; αMeL13; Orn16; K17((2-[2-(2-Amino-ethoxy)-ethoxy]-acetyl)2-(γGlu)-CO-(CH2)16-CO2H); Aib20; D-Glu24; αMeY25; C-terminal NH2) [Peptide 246] is above or exactly 1.
Result: TRUE

Query: Kindly determine if hGLPIR cAMP EC50 ratio recorded for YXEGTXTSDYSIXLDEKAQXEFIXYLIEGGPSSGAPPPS (Aib2; αMeF(2F)6; Aib13; K17((2-[2-(2-Amino-ethoxy)-ethoxy]-acetyl)2-(γGlu)-CO-(CH2)18-CO2H); Aib20; D-Glu24; C-terminal NH2) [Peptide 224] is above or exactly 1.
Result: TRUE
